Test system: AGE-BSA Formation (Bovine Serum Albumin incubated with ribose)
assaySummary: In vitro prevention of advanced glycation endproducts (AGEs) accumulation: BSA incubated with ribose, fluorescence
experimentalSetup: Conc. 1 mM, one week
recordedMetric: % Inhibition of AGE-BSA Formation

CS(=O)(=O)NNC(=O)C1C=CCN(CC(=O)c2cccs2)C1 (centres unmarked) | + (+ indicate 0-10%)
Cc1ccc(C(=O)CN2CC=CC(C(=O)NNS(C)(=O)=O)C2)s1 (centres unmarked) | + (+ indicate 0-10%)
O=C(NCCO)C1=CN(CC(=O)c2ccc(Br)cc2)C=CC1 | + (+ indicate 0-10%)

====

assaySummary: in vivo
experimentalSetup: male, Wistar, rat, po, 10 mg/kg
recordedMetric: AUC(0-t) (ng·h/mL)
Give the value in ng·h/mL but do not write ng·h/mL after it.

Give the measured AUC(0-t) for "CS(=O)(=O)NNC(=O)C1=CN(CC(=O)c2cccs2)C=CC1"
1410

====

Tested on: AGE-BSA Formation (Bovine Serum Albumin incubated with ribose)
assaySummary: In vitro prevention of advanced glycation endproducts (AGEs) accumulation: BSA incubated with ribose, fluorescence
experimentalSetup: Conc. 100 uM, one week
recordedMetric: % Inhibition of AGE-BSA Formation

COc1ccc(C(=O)CN2CCCC(C(=O)NNS(=O)(=O)c3ccc(C)cc3)C2)cc1 (stereo not shown) | + (+ indicate 0-10%)
O=C(CN1CCCC(C(=O)NNS(=O)(=O)c2ccccc2)C1)c1cccs1 (stereo not shown) | + (+ indicate 0-10%)
COc1ccc(C2=CN(CC(=O)c3cccs3)C=C(C(=O)NNS(C)(=O)=O)C2)cc1 | + (+ indicate 0-10%)
